Provide the recorded Ki for the entries that follow.

Lab request: please report Ki under test system Bcl-2 (Homo sapiens, UniProt P10415) for CC(O)C1C(CO)ON(Cc2cccc(C(=O)NCCc3ccccc3)c2)C1C(=O)NC1CC2CC(C1C)C2(C)C (stereo not drawn)
< 800 nM

Lab request: please report Ki under test system Bcl-2 (Homo sapiens, UniProt P10415) for CC(O)C1C(CO)ON(Cc2cccc(CNCC3CCCN3C(=O)OCc3ccccc3)c2)C1C(=O)NC1CC2CC(C1C)C2(C)C (stereo not drawn)
< 800 nM

Lab request: please report Ki under test system Bcl-2 (Homo sapiens, UniProt P10415) for `C[C@@H]1[C@@H](NC(=O)[C@@H]2[C@H]([C@H](C)O)[C@H](CO)ON2Cc2cccc(-c3ccc4c(=O)n(C)n(C)c(=O)c4c3)c2)C[C@H]2C[C@@H]1C2(C)C`
< 800 nM

Lab request: please report Ki under test system Bcl-2 (Homo sapiens, UniProt P10415) for CC(O)C1C(CO)ON(Cc2cccc(CN(CCN(C)C)Cc3ccc4ccccc4c3)c2)C1C(=O)NC1CC2CC(C1C)C2(C)C (stereo not drawn)
< 800 nM

Lab request: please report Ki under test system Bcl-2 (Homo sapiens, UniProt P10415) for CC(O)[C@H]1[C@@H](CO)ON(Cc2cccc(C#CC(C)(C)c3ccccc3)c2)[C@H]1C(=O)NCCCN(C)c1ccccc1 (stereo partly drawn)
800 to 6000 nM

Lab request: please report Ki under test system Bcl-2 (Homo sapiens, UniProt P10415) for `COc1c(CN2O[C@@H](CO)[C@@H]([C@H](C)O)[C@H]2C(=O)N[C@H]2C[C@H]3C[C@@H]([C@@H]2C)C3(C)C)cccc1-c1cccc(C(=O)N[C@H](Cc2ccccc2)CN(C)C)c1`
< 800 nM
